Quick reference for Odour reduction value among some compounds
- experiment: Raw material test against sweat odour (masking of malodour standard, assessor panel)
- assay-context: Table 1; 1 μl fragrance + 5 μl 3-mercapto-3-methyl-hexan-1-ol (0.1% in DPG) in 7 l air, 15 h at approx. 20° C.; scale 1 to 9, malodour standard mixture = 6; mean of at least 8 assessors
property-label: Odour reduction value

compound: CCCCCC1CCC(=O)O1 (stereo not drawn) [5-PENTYLDIHYDROFURAN-2-ONE]
measured: 4.1
--
compound: C/C=C(\C)C(=O)OC/C=C(\C)CCC=C(C)C
measured: 4.5
--
compound: CC(=O)C(C)=C(C)C(C)C(C)(C)C (stereo not drawn)
measured: 3.2
--
compound: CCCC(=O)C(CC)Cc1ccccc1 (stereo not drawn)
measured: 4.6
--
compound: C/C=C/C(=O)C1CCC(C)(C)C=C1C (stereo not drawn)
measured: 5.0
--
compound: COCc1ccc(O)c(OC)c1
measured: 4.1
--
compound: CC(=O)OC(C)c1ccccc1 (stereo not drawn)
measured: 4.0
--
compound: C=CCc1ccc(O)c(OC)c1
measured: 6.0
--
compound: CC(=O)C(C)=CC1C(C)=CCCC1(C)C (stereo not drawn)
measured: 5.1
--
compound: COC(=O)c1ccccc1N=CC(C)Cc1ccc(C(C)(C)C)cc1 (stereo not drawn)
measured: 3.3
--
compound: CCCCCCC1OC(=O)CC1C (mixture of isomers) [(E/Z) 5-HEXYLDIHYDRO-4-METHYL-2-FURANONE]
measured: 4.2
--
compound: COC1CCCCCCCCCCC1
measured: 3.1
--
compound: CCOC(C=C(C)CCC=C(C)C)OCC
measured: 4.3
--
compound: C=CC(C)(C#N)Cc1ccccc1 (stereo not drawn)
measured: 4.2
--
compound: Cc1cccc(CC(C)(C)C(C)O)c1 (stereo not drawn)
measured: 4.6

###

- experiment: Raw material test against sweat odour (masking of malodour standard, assessor panel)
- assay-context: Table 1; 1 μl fragrance + 5 μl 3-mercapto-3-methyl-hexan-1-ol (0.1% in DPG) in 7 l air, 15 h at approx. 20° C.; scale 1 to 9, malodour standard mixture = 6; mean of at least 8 assessors
Quick reference for Odour reduction value among some molecules

molecule: CC(C)=CCCC(C)CCOCC=O (centres unmarked)
Odour reduction value: 3.8
--
molecule: CCCCCCO
Odour reduction value: 3.6
--
molecule: CCCCCCC1(C)CCC(=O)O1 (centres unmarked)
Odour reduction value: 5.6
--
molecule: CCCCCCCC1CCCC1=O (centres unmarked)
Odour reduction value: 4.5
--
molecule: CC(C)=CCCC(C)CC#N (centres unmarked)
Odour reduction value: 4.5
--
molecule: O=C1CCCCCCCCC/C=C/CCCO1
Odour reduction value: 4.0
--
molecule: CCCC(C)C(=O)OCC (centres unmarked)
Odour reduction value: 4.4
--
molecule: CC(=O)OCC(C)CC(C)(C)c1ccccc1 (centres unmarked)
Odour reduction value: 3.4
--
molecule: CC(C)c1ccc(CC=O)cc1
Odour reduction value: 3.8
--
molecule: CC(=O)CC(C)(C)c1ccccc1
Odour reduction value: 4.2
--
molecule: O=C1CCCCCCCCCCCCCCO1 [1.15-PENTADECANOLIDE]
Odour reduction value: 3.6

###

- experiment: Raw material test against sweat odour (masking of malodour standard, assessor panel)
- assay-context: Table 3 (adequate malodour-reducing action but significant increase in intensity); 1 μl fragrance + 5 μl 3-mercapto-3-methyl-hexan-1-ol (0.1% in DPG) in 7 l air, 15 h; scale 1 to 9, standard = 6

molecule: CCC(C)CCCC(C)(C)O (stereo not shown) [TETRAHYDROMYRCENOL, reference compound]
Increase in intensity: 2.2
--
molecule: CC(C)=CCCC(C)=CC#N [GERANYL NITRILE, 3,7-dimethyl-2,6-octadiene-1-nitrile, reference compound]
Increase in intensity: 3.0
--
molecule: CC(=O)OC1CC(C)CCC1C(C)C (stereo not shown) [MENTHYL ACETATE, reference compound]
Increase in intensity: 2.9
--
molecule: CC(=O)OC/C=C(\C)CCC=C(C)C [GERANYL ACETATE, reference compound]
Increase in intensity: 2.2
--
molecule: CC12CCC(CC1)C(C)(C)O2 [1,8-CINEOL, reference compound]
Increase in intensity: 2.4
--
molecule: CCC(C)(O)CCCC(C)C (stereo not shown) [TETRAHYDROLINALOOL, reference compound]
Increase in intensity: 2.3
--
molecule: CCCCCOC(=O)c1ccccc1O [AMYL SALICYLATE, reference compound]
Increase in intensity: 2.4
--
molecule: CC(=O)/C(C)=C/C1C(C)=CCCC1(C)C (stereo not shown) [GAMMA-METHYLICONE, reference compound]
Increase in intensity: 2.1
--
molecule: CC(C)CCCC(C)CCO (stereo not shown) [3,7-DIMETHYL OCTANOL, reference compound]
Increase in intensity: 2.2
--
molecule: CCCCCCCCC=O [NONANAL, reference compound]
Increase in intensity: 2.1
